Assay: Cytotoxicity against African green monkey Vero cells infected with Herpes simplex virus 1 after 72 hrs by MTT assay
Assay type: cell-based
Conditions: chlorocebus sabaeus, read-out: TC50
Recorded CC50 at 72 h determines the label; the label ranges are low band (below 7 µg/mL), middle band (7 µg/mL to below 50 µg/mL), high band (50 µg/mL or more)

In plain terms, what class is `O/N=C/c1c(Cl)ncnc1NCc1ccc(Br)cc1` ?
middle band

State the class of the molecule shown: `C[C@H]1O[C@@H](n2c(=O)nc(N)c3c(=O)[nH]c(N)nc32)[C@H](O)[C@@H]1O`
middle band

// bin(item) where item = `Nc1ncn([C@@H]2O[C@H](CO)[C@@H](O)[C@@H]2O)c2nc(=O)[nH]c(=O)c1-2`
low band

Using the reported CC50 at 72 h, which band applies to `NC(=O)c1ncn([C@@H]2O[C@H](CO)[C@@H](O)[C@H]2O)n1` ?
high band

For the record `COc1ccc(Cn2c(=O)nc(N)c3c(=O)[nH]c(N)nc32)cc1` , report the class its CC50 at 72 h corresponds to.
middle band

Lab note: sort `O/N=C/c1c(Cl)ncnc1NCc1ccc(Cl)cc1` into the matching CC50 at 72 h band.
low band

Textbook exercise: identify the category of the molecule given here, `COc1ccc(CNc2ncnc(Cl)c2/C=N/O)cc1` , according to its measured value.
low band

Into which category would you place `O/N=C/c1c(Cl)ncnc1NCc1ccc(F)cc1` ?
middle band

Please classify: `CO/N=C\c1c(Cl)ncnc1NCc1ccccc1OC`
high band

Bin this entry: `COc1ccccc1CNc1ncnc(Cl)c1/C=N/O`
low band

Assign a bin to `Nc1ncn([C@@H]2O[C@H](CO)[C@@H](O)[C@H]2O)c2nc(=O)[nH]c(=O)c1-2`
high band

Class for `C[C@H]1O[C@@H](n2cnc(N)c3c(=O)[nH]c(=O)nc2-3)[C@H](O)[C@@H]1O` ?
high band

Class label required: `CO/N=C/c1c(Cl)ncnc1NCc1ccccc1OC`
middle band

Category of `O/N=C/c1c(Cl)ncnc1NCc1ccccc1` , please.
middle band

Tag the class for `Nc1nc(=O)n([C@@H]2O[C@H](CO)[C@@H](O)[C@H]2O)c2nc[nH]c(=O)c12`
low band

Please classify: `Nc1nc2c(c(N)nc(=O)n2[C@H]2C[C@H](O)[C@@H](CO)O2)c(=O)[nH]1`
high band

For the record `Nc1ncnc2c1c(=O)[nH]c(=O)n2[C@@H]1O[C@H](CO)[C@@H](O)[C@@H]1O` , report the class its CC50 at 72 h corresponds to.
high band

Categorize the following entry: `CC(C)(C)c1ccc(CNc2ncnc(Cl)c2/C=N\O)cc1`
low band

Would you mind sorting `COc1ccccc1Nc1ncnc(Cl)c1/C=N/O` into the appropriate category?
middle band

Band of `Nc1ncn([C@H]2C[C@H](O)[C@@H](CO)O2)c2nc(=O)[nH]c(=O)c1-2` ?
high band

Please classify: `COc1nc(N)nc2[nH]c(=O)nc(N)c12`
middle band

Which CC50 at 72 h band matches `Nc1ncn([C@H]2O[C@@H](CO)[C@H](O)[C@@H]2O)c2nc(=O)[nH]c(=O)c1-2` ?
high band

----------
Assay: Cytotoxicity against African green monkey Vero cells infected with Hepatitis B virus after 72 hrs by MTT assay
Assay type: cell-based
Conditions: chlorocebus sabaeus, read-out: TC50
Kindly supply the reported CC50 at 72 h values for the records listed here.
Number only, in µg/mL; omit the unit.

May I ask what CC50 at 72 h has been recorded for `COc1ccccc1CNc1ncnc(Cl)c1/C=N/O` ?
0.063

Item `CC(C)(C)c1ccc(CNc2ncnc(Cl)c2/C=N/O)cc1` has what recorded CC50 at 72 h?
0.0397
